These measurements were taken from patent US11813306B2.

- MEASURED ON: human PCSK9 (Homo sapiens, UniProt Q8NBP7)
- Sequence (Q8NBP7 153-692): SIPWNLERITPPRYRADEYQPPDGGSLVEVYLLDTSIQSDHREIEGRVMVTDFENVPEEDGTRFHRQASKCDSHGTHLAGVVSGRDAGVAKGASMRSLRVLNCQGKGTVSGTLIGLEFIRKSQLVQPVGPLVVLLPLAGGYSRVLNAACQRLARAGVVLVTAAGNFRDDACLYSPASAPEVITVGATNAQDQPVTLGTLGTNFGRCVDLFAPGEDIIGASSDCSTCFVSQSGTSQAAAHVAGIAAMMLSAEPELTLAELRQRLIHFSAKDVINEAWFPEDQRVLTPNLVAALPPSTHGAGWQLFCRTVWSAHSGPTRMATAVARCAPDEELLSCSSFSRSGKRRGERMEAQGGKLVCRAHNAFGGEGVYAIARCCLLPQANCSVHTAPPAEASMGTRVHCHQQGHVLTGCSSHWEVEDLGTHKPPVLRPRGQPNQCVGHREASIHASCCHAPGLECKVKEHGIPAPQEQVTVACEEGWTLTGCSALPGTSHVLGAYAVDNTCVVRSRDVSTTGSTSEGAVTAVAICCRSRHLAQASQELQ
- Sequence (Q8NBP7 31-152 partner limits assumed): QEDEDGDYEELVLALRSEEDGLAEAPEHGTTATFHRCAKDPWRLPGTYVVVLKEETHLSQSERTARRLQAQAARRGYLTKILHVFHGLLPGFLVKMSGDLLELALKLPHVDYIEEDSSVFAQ
- ASSAY NOTES: PCSK9 ligand binding assay (TR-FRET): interference with binding of human PCSK9 to human LDLR
- TEST PARAMETERS: Human PCSK9 Alexa Fluor 647 / Human LDLR extracellular domain-Europium Kryptate
pIC50: −log10 of the molar value.
OBSERVATION TYPE: pIC50

{"columns": ["COMPOUND", "OBSERVATION TYPE", "MEASURED VALUE"],
 "data": [
  ["C[C@H]1C(=O)N[C@@H](CO)C(=O)N[C@@]2(Cc3ccc(Cl)cc3)CCCN(C2)C(=O)[C@H](Cc2cccc[n+]2[O-])CC(=O)N1Cc1ccc(Cl)cc1Oc1ccc(-c2cnc(CN(C)C)n2C)cc1 [Compound 66]", "pIC50", 9.17]
]}

P: C[C@H]1C(=O)N[C@@H](CO)C(=O)N[C@@]2(Cc3ccc(Cl)cc3)CCCN(C2)C(=O)[C@H]([C@@H]2CCc3ccccc32)CC(=O)N1Cc1c(F)cc(Cl)cc1Oc1ccc(-c2cnc(CN(C)C)n2C)cc1 [Compound 49]
Q: COC[C@@H]1NC(=O)[C@H](C)N(Cc2ccc(Cl)cc2Oc2ccc(-c3cnc(CN4CCCC4)n3C)cc2)C(=O)C[C@@H]([C@H]2COc3c(OC)cccc32)C(=O)N(C)C[C@@H](Cc2ccc(Cl)cc2)N(C)C1=O.Cl [Compound 110]
R: COC[C@@H]1NC(=O)[C@H](C)N(Cc2ccc(Cl)cc2Oc2ccc(-c3cnc(CN4CCCC4)n3C)cc2)C(=O)C[C@@H]([C@H]2CCc3ccccc32)C(=O)N2CCC[C@@](Cc3ccc(Cl)cc3)(C2)NC1=O.O=C(O)C(F)(F)F [Compound 96, trifluoroacetate]
QUERY: Please order the records by their reported pIC50, lowest number first. Response format: the labels, sorted as the prompt asks.
RESULT: Q, R, P

----------
- MEASURED ON: human PCSK9 (Homo sapiens, UniProt Q8NBP7)
- ASSAY NOTES: PCSK9 ligand binding assay (TR-FRET): interference with binding of human PCSK9 to human LDLR
- TEST PARAMETERS: Human PCSK9 Alexa Fluor 647 / Human LDLR extracellular domain-Europium Kryptate
Where a name gives a salt, the structure may show the parent alone.
OBSERVATION TYPE: IC50 (nM)

{"columns": ["COMPOUND", "MEASURED ON", "RESULT UNIT", "MEASURED VALUE"],
 "data": [
  ["C[C@H]1C(=O)N[C@@H](CO)C(=O)N(C)[C@@]2(Cc3ccc(Cl)cc3)CCCN(C2)C(=O)[C@H](Cc2ccccn2)CC(=O)N1Cc1ccc(Cl)cc1Oc1ccc(-c2cnc(CN(C)C)n2C)cc1 [Compound 18]", "human PCSK9 (Homo sapiens, UniProt Q8NBP7)", "nM", 0.549],
  ["CNCc1ncc(-c2ccc(Oc3cc(Cl)cc(F)c3CN3C(=O)C[C@@H](CC(F)(F)F)C(=O)N4CCC[C@@](Cc5ccc(Cl)cc5)(C4)N(C)C(=O)[C@H](CO)NC(=O)[C@@H]3C)cc2)n1C [Compound 177, trifluoroacetate]", "human PCSK9 (Homo sapiens, UniProt Q8NBP7)", "nM", 52.7],
  ["C[C@H]1C(=O)N[C@@H](CO)C(=O)N(C)[C@@]2(Cc3ccc(Cl)cc3)CCCN(C2)C(=O)[C@H](Cc2ccccc2)CC(=O)N1Cc1ccc(Cl)cc1Oc1ccc(-c2cnc(CN(C)C)n2C)nc1 [Compound 71]", "human PCSK9 (Homo sapiens, UniProt Q8NBP7)", "nM", 0.754],
  ["COC[C@@H]1NC(=O)[C@H](C)N(Cc2c(F)cc(Cl)cc2Oc2ccc(-c3cnc(CN(C)C)n3C)cc2)C(=O)C[C@@H](Cc2cccc[n+]2[O-])C(=O)N2CCC[C@@](Cc3ccc(Cl)cc3)(C2)N(C)C1=O [Compound 3]", "human PCSK9 (Homo sapiens, UniProt Q8NBP7)", "nM", 0.452]
]}

a: C[C@H]1C(=O)N[C@@H](CO)C(=O)N[C@@]2(Cc3ccc(Cl)cc3)CCCN(C2)C(=O)[C@H](Cc2ccccc2)CC(=O)N1Cc1ccc(Cl)cc1Oc1ccc(-c2nnc(CN(C)C)n2C)cc1 [Compound 56]
b: COC[C@@H]1NC(=O)[C@H](C)N(Cc2ccc(Cl)cc2Oc2ccc(-c3cnc(CNC(C)(C)C)n3C)cc2)C(=O)C[C@@H](CC(F)(F)F)C(=O)N2CCC[C@@](Cc3ccc(Cl)cc3)(C2)NC1=O [Compound 6]
QUERY: Which entry has a larger number for IC50, a or b ? Provide the label of your selected option as the answer.
RESULT: b

I: COC[C@@H]1NC(=O)[C@H](C)N(Cc2c(F)cc(Cl)cc2Oc2ccc(-c3cnc(CN)n3C)cc2)C(=O)C[C@@H](C2CC(F)(F)C2)C(=O)N2CCC[C@@](Cc3ccc(Cl)cc3)(C2)N(C)C1=O [Compound 166]
II: C[C@H]1C(=O)N[C@@H](CO)C(=O)N[C@@]2(Cc3ccc(Cl)cc3)CCCN(C2)C(=O)[C@H](Cc2cccnc2)CC(=O)N1Cc1ccc(Cl)cc1Oc1ccc(-c2cnc(CN(C)C)n2C)cc1.Cl [Compound 19, hydrochloride]
QUERY: Which entry has a larger number for IC50, I or II ? Provide the label of your selected option as the answer.
RESULT: I
